Tested on: 786-0
Test: NCI tumour cell line growth inhibition, 48 h
Active and inactive are the calls of the source. Rule as the data show it: active = GI50 up to about 1.1 µM and inactive = higher.
Outcome field: choose from YES for active, NO for inactive

{"columns": ["molecule", "assigned.label"],
 "data": [
  ["CCCCOC(=O)C(=O)C(CCC(=O)c1ccc(C)cc1)C(=O)C=C(C)C (centres undefined)", "NO"],
  ["COc1cc2c3c(c4ccc(OC)c(OC)c4c2cc1OC)CN1CCC[C@@H]1C3", "YES"],
  ["c1ccc(CSP234N5CCN2CCN3CCN4CC5)c(CSP234N5CCN2CCN3CCN4CC5)c1", "NO"],
  ["N=C(N)N/N=C/c1c(-c2ccc(Cl)c(Cl)c2Cl)nc2sccn12", "NO"],
  ["O=C(/C=C/c1ccccc1Cl)c1cccc2ccccc12", "NO"]
]}

Record request — test call for C=CCN1C(=O)/C(=C/c2ccccc2)N=C1SC/C=C/C
NO

For NC(CSCc1ccc(I)cc1)C(=O)O (centres undefined) , what call appears in the results of this test?
NO

What outcome does the record of this test show for CC(=O)OCC1OC(n2cc(I)c(=O)[nH]c2=O)C(OC(C)=O)C(OC(C)=O)C1OC(C)=O (centres undefined) ?
NO

Which outcome was assigned to CC1(C)OC2C(CCP(=O)(O)O)OC(c3nc(C(N)=O)cs3)C2O1 (centres undefined) in this test?
NO

What was the test verdict on CC1(C)OC(=O)C(=Cc2ccc(O)cc2)C(=O)O1 ?
NO

Fill in: this test's call for CN1C(NCCO)=NS(=O)(=O)c2ccccc21 is ___
NO

Record lookup: outcome of this test for Cc1c(/N=C\c2ccc(N(CCC#N)CCC#N)cc2)c(=O)n(-c2ccccc2)n1C ?
NO

Called result for Cn1c2ccccc2n2c3ncccc3c(=O)c(C#N)c12
NO

Entry O=C1Cc2c(-c3ccc(Cl)cc3)cc(-c3ccccc3)nc2-c2ccccc2N1 : call = ?
NO

In this assay, the call recorded for COc1ccc(CCNC(=O)CCCCCO)cc1OC was what?
NO

Please state the recorded outcome for this molecule: O=C(c1ccc([N+](=O)[O-])cc1)C(Br)C(Br)c1ccnc2ccccc12 (centres undefined)
NO

###

Test system: PC-3
Assay: NCI tumour cell line growth inhibition, 48 h
Calls of active or inactive are those of the source. Cut-off read from the data, not from the text of the source: active = GI50 up to about 1.1 µM and inactive = higher.
Permitted responses: class 1 (active), class 0 (inactive)

// below: answered compounds
{"columns": ["compound", "target", "assigned.label"],
 "data": [
  ["CCCCOC(=O)N[C@H]1CCc2cc(OC)c(OC)c(OC)c2-c2ccc(SC)c(=O)cc21", "PC-3", "class 1"],
  ["CCOC(=O)c1c(C)n(CCN2CCN(C)CC2)c2ccc(OC)cc12", "PC-3", "class 0"]
]}

I would be grateful if you could indicate the recorded call for C=C(C)[C@H]1Cc2c(ccc3c2O[C@@H]2COc4cc(OC)c(OC)cc4[C@@H]2C3=O)O1 .
class 1

Please let me know the test result on file for CN1C(=O)C(/C=N/NC(=O)c2cccnc2)C(N)N(C)C1=O (centres undefined) .
class 0

Kindly provide the recorded test outcome for the following compound: Cn1c(COC(=O)Nc2ccccc2)c(COC(=O)Nc2ccccc2)c2ccc3cc(Cl)c(Cl)cc3c21
class 0

Outcome logged for OCC1OC(n2nc(-c3ccccc3)nc2-c2cnccn2)C(O)C1O (centres undefined) in this assay:
class 0

For CC(C)=CCC[C@H](C)[C@H]1CC[C@@H](C)c2cc(O)c(C)cc21 , what call appears in the results of this test?
class 0

What was the test verdict on O=C(n1c(=O)n(-c2ccc([N+](=O)[O-])cc2)c(=O)n1C(=O)C(Cl)(Cl)Cl)C(Cl)(Cl)Cl ?
class 0

Please state the recorded outcome for this compound: CC(=O)Nc1ccc2cc3c(nc2n1)c1cccnc1n3S(=O)(=O)c1ccccc1
class 0

###

Tested on: M14
Experiment: NCI tumour cell line growth inhibition, 48 h
Calls of active or inactive are those of the source. Cut-off read from the data, not from the text of the source: active = GI50 up to about 1.1 µM and inactive = higher.
measurement.type: GI50

Return GI50 for the following compound: O=C1NC2(NC(=O)C1=O)Nc1ccccc1S2
44.5 µM (inactive)

Give a short answer stating reported GI50 for CC(=O)Nc1ccc2cc3c(nc2n1)c1cccnc1n3S(=O)(=O)c1ccccc1 .
> 100 µM (inactive)

###

System: NCI-H23
Experiment: NCI tumour cell line growth inhibition, 48 h
The source made the active and inactive calls. Rule as the data show it: active = GI50 up to about 1.1 µM and inactive = higher.
In this exercise, the only acceptable responses are True = active, False = inactive

Kindly provide the recorded test outcome for the following molecule: COc1ccc(C(=O)C#Cc2cnc(O)nc2O)cc1
False

How was COc1ccc2c(c1)N(C(C)=O)CN1C(=O)CCC21 (stereo unspecified) classified in this test?
False

Could you please tell me the result logged for CN(COC(=O)c1ccccc1)c1nc(N(C)COC(=O)c2ccccc2)nc(N(C)COC(=O)c2ccccc2)n1 in this assay?
False

I would be grateful if you could indicate the recorded call for Cc1cc(C)c(C(=O)/C(=C/c2ccccc2)c2ccccc2)c(C)c1 .
False

// outcome(item) with item = COc1cc2c(cc1OC)C(Cl)C(c1cc(OC)c(OC)c(OC)c1)=C2Cl (stereo unspecified)
False

GET /call?item= COc1nc(N)nc2nc[nH]c12 returns the recorded outcome of this test.
False

Field: outcome | Entry: CC[C@@H]1CC[C@@H]2[C@H](CC[C@]3(C)[C@@H](O)CC[C@@H]23)[C@H]1C(=O)O
False

###

Tested on: MDA-MB-435
Experiment: NCI tumour cell line growth inhibition, 48 h
Calls of active or inactive are those of the source. Cut-off read from the data, not from the text of the source: active = GI50 up to about 1.1 µM and inactive = higher.
measurement.type: GI50

Some solved cases for reference:
{"columns": ["compound", "result"],
 "data": [
  ["CO[C@@H](c1ccccc1)[C@H](O)[C@@](O)(c1ccccc1)P(=O)(OC)OC", "44.4 µM (inactive)"],
  ["CCCCCCCCCCCCCCCC(=O)OCC(COP(=O)(O)OCCNC(=O)CCSSc1ccccn1)OC(=O)CCCCCCCCCCCCCCC (stereo unspecified)", "> 100 µM (inactive)"],
  ["Fc1c(F)c(F)c(CSc2nc3ccccc3[nH]2)c(F)c1F", "> 100 µM (inactive)"],
  ["O=c1[nH]cnc2c1ncn2C1SC(CO)C(O)C1O (stereo unspecified)", "> 100 µM (inactive)"]
]}

Report GI50 for CC(C)(C)c1cc(-c2ccc(-c3cc(C(C)(C)C)c(O)c(C(C)(C)C)c3)cc2)cc(C(C)(C)C)c1O
> 100 µM (inactive)

Consider the compound C[C@]12CC[C@@H]3c4cc(OCC(F)(F)F)c(O)cc4CC[C@H]3[C@@H]1CC[C@@H]2O . State its measured GI50.
0.284 µM (active)

Please give measured GI50 of the following entry: Cc1ccc(S(=O)(=O)N/N=C2\CC3C4C=CC3C2C4)cc1 (stereo unspecified)
> 100 µM (inactive)

For the compound CC1CC(NN(C)C)C2(C(N)=O)C(N)=NC(=O)C12C#N (stereo unspecified) , report GI50.
> 100 µM (inactive)

Answer with reported GI50 of Cc1ccc(NC(c2ccccc2)P(=O)(c2ccccc2)c2ccccc2)cc1 (stereo unspecified)
> 100 µM (inactive)

Give GI50 for the following compound: O=C(CC(C(=O)c1ccsc1)c1cccs1)c1ccccc1 (stereo unspecified)
57.3 µM (inactive)

Report GI50 for COc1cc(/C=N/n2c(-c3ccccc3)nn(C(C)=O)c2=O)cc(OC)c1OC
0.19 µM (active)

Return GI50 (reported value) for this compound: O=c1c2c(-c3ccccc3)onc2n(-c2ccccc2)c(=O)n1-c1ccccc1
> 100 µM (inactive)

Name the recorded GI50 of the compound listed here: CN1C(=O)C(/C=N/NC(=O)c2cccnc2)C(N)N(C)C1=O (stereo unspecified)
> 100 µM (inactive)

###

Overview of reported GI50 across a group of molecules:
Test system: HCT-116
Experiment: NCI tumour cell line growth inhibition, 48 h
The source made the active and inactive calls. No stated cut-off is given here; in the data, active = GI50 up to about 1.1 µM and inactive = higher.

Would you please look over these solved cases?
{"columns": ["molecule", "GI50"],
 "data": [
  ["CN1C(NCCO)=NS(=O)(=O)c2ccccc21", "> 100 µM (inactive)"],
  ["COc1ccc(C2C(C#N)=C(S)N(C3OC(COC(C)=O)C(OC(C)=O)C(OC(C)=O)C3OC(C)=O)C(C)=C2C(C)=O)cc1 (stereo unspecified)", "65 µM (inactive)"],
  ["C=CC(C)(O)CCC1C(=C)C(O)CC2C(C)(C)CCCC12C (stereo unspecified)", "17.9 µM (inactive)"]
]}

Give the value of GI50 reported for the following: NC(CCC(=O)c1ccccn1)C(=O)O (stereo unspecified)
> 100 µM (inactive)

Please look at this molecule and report its GI50: C[C@]12CC[C@@H]3c4cc(OCC(F)(F)F)c(O)cc4CC[C@H]3[C@@H]1CC[C@@H]2O
1.9 µM (inactive)

Identify measured GI50 corresponding to CCc1nn(CN2CCN(C)CC2)c(=S)n1/N=C\c1ccc(-c2ccc([N+](=O)[O-])cc2)o1
58.5 µM (inactive)
